System: SK-MEL-2
ASSAY COMMENT: Growth inhibition of human SK-MEL-2 cells assessed as cell growth at 10^-4 M by sulforhodamine B assay
Type: functional
CONDITION PARAMETERS: read-out: Activity
Overview of reported growth at 100 µM across a group of compounds:
Express the result in % but write the number alone.

Some solved entries appear below for comparison.
CC(C)=CC(=O)O[C@@H]1CC(C)(C)C[C@H]2C3=CC[C@@H]4[C@@]5(C)CCC(=O)C(C)(C)[C@@H]5CC[C@@]4(C)[C@]3(C)CC[C@@]12C(=O)O : -69
CC(C)=CC(=O)O[C@@H]1CC(C)(C)C[C@H]2C3=CC[C@@H]4[C@@]5(C)CC[C@H](O)C(C)(C)[C@@H]5CC[C@@]4(C)[C@]3(C)CC[C@@]12C(=O)O [Reduced Lantadene B] : -71
C/C=C(/C)C(=O)O[C@@H]1CC(C)(C)C[C@H]2C3=CC[C@@H]4[C@@]5(C)CCC(=O)C(C)(C)[C@@H]5CC[C@@]4(C)[C@]3(C)CC[C@@]12C(=O)O [LANTADENE A] : -35

Task: Please give the measured growth at 100 µM for this compound: CC1(C)C[C@@H](O)[C@]2(C(=O)O)CC[C@]3(C)C(=CC[C@@H]4[C@@]5(C)C/C(=C\C=C\c6ccccc6)C(=O)C(C)(C)[C@@H]5CC[C@]43C)[C@@H]2C1
Output: -72

Task: Please give the measured growth at 100 µM for this compound: C/C=C(/C)C(=O)O[C@@H]1CC(C)(C)C[C@H]2C3=CC[C@@H]4[C@@]5(C)CC[C@H](O)C(C)(C)[C@@H]5CC[C@@]4(C)[C@]3(C)CC[C@@]12C(=O)O [Reduced Lantadene A]
Output: -71

----------
Overview of reported inhibition of growth at 10 µM across a group of molecules:
Tested on: SF-268
ASSAY COMMENT: Growth inhibition of human SF268 cells assessed as growth inhibition at 10 uM by sulforhodamine B assay
Assay type: functional
CONDITION PARAMETERS: read-out: GI
Express the result in % but write the number alone.

CC1(C)C[C@@H](O)[C@]2(C(=O)O)CC[C@]3(C)C(=CC[C@@H]4[C@@]5(C)C/C(=C\C=C\c6ccccc6)C(=O)C(C)(C)[C@@H]5CC[C@]43C)[C@@H]2C1 : 29.3

Task: Please give the measured inhibition of growth at 10 µM for this molecule: C/C=C(/C)C(=O)O[C@@H]1CC(C)(C)C[C@H]2C3=CC[C@@H]4[C@@]5(C)CC[C@H](O)C(C)(C)[C@@H]5CC[C@@]4(C)[C@]3(C)CC[C@@]12C(=O)O
Output: 74.1

Task: Please give the measured inhibition of growth at 10 µM for this molecule: CC(C)=CC(=O)O[C@@H]1CC(C)(C)C[C@H]2C3=CC[C@@H]4[C@@]5(C)CCC(=O)C(C)(C)[C@@H]5CC[C@@]4(C)[C@]3(C)CC[C@@]12C(=O)O
Output: 27

----------
Overview of reported growth at 10 µM across a group of molecules:
ASSAY COMMENT: Growth inhibition of human Hs 578T cells assessed as cell growth at 10 uM by sulforhodamine B assay
Assay type: functional
CONDITION PARAMETERS: read-out: Activity
A bare number is not enough; add the unit after it.

Some solved entries appear below for comparison.
CC1(C)C[C@@H](O)[C@]2(C(=O)O)CC[C@]3(C)C(=CC[C@@H]4[C@@]5(C)CC[C@H](O)C(C)(C)[C@@H]5CC[C@]43C)[C@@H]2C1 : 102%
CC(C)=CC(=O)O[C@@H]1CC(C)(C)C[C@H]2C3=CC[C@@H]4[C@@]5(C)CCC(=O)C(C)(C)[C@@H]5CC[C@@]4(C)[C@]3(C)CC[C@@]12C(=O)O : 79.6%
COc1cc(/C=C2\C[C@]3(C)[C@H]4CC=C5[C@@H]6CC(C)(C)C[C@@H](O)[C@]6(C(=O)O)CC[C@@]5(C)[C@]4(C)CC[C@H]3C(C)(C)C2=O)ccc1O : 94%
CC1(C)C[C@@H](O)[C@]2(C(=O)O)CC[C@]3(C)C(=CC[C@@H]4[C@@]5(C)CCC(=O)C(C)(C)[C@@H]5CC[C@]43C)[C@@H]2C1 : 99.3%

Task: Please give the measured growth at 10 µM for this molecule: CC1(C)C[C@@H](O)[C@]2(C(=O)O)CC[C@]3(C)C(=CC[C@@H]4[C@@]5(C)C/C(=C\C=C\c6ccccc6)C(=O)C(C)(C)[C@@H]5CC[C@]43C)[C@@H]2C1
Output: 58.4%

----------
System: CAKI-1
ASSAY COMMENT: Growth inhibition of human CAKI-1 cells assessed as growth inhibition at 10 uM by sulforhodamine B assay
Format: functional
CONDITION PARAMETERS: read-out: GI
Classification field: enter label 1 for inhibition of growth at 10 µM values not below 50%, label 0 for values below it.

# example entries with known answers
CC(C)=CC(=O)O[C@@H]1CC(C)(C)C[C@H]2C3=CC[C@@H]4[C@@]5(C)CCC(=O)C(C)(C)[C@@H]5CC[C@@]4(C)[C@]3(C)CC[C@@]12C(=O)O : label 1
C/C=C(/C)C(=O)O[C@@H]1CC(C)(C)C[C@H]2C3=CC[C@@H]4[C@@]5(C)CCC(=O)C(C)(C)[C@@H]5CC[C@@]4(C)[C@]3(C)CC[C@@]12C(=O)O : label 1
COc1cc(/C=C2\C[C@]3(C)[C@H]4CC=C5[C@@H]6CC(C)(C)C[C@@H](O)[C@]6(C(=O)O)CC[C@@]5(C)[C@]4(C)CC[C@H]3C(C)(C)C2=O)ccc1O : label 0
CC1(C)C[C@@H](O)[C@]2(C(=O)O)CC[C@]3(C)C(=CC[C@@H]4[C@@]5(C)C/C(=C\C=C\c6ccccc6)C(=O)C(C)(C)[C@@H]5CC[C@]43C)[C@@H]2C1 : label 1

Please turn your attention to the following entry.
Task: Hi, just wondering whether CC1(C)C[C@@H](O)[C@]2(C(=O)O)CC[C@]3(C)C(=CC[C@@H]4[C@@]5(C)CC[C@H](O)C(C)(C)[C@@H]5CC[C@]43C)[C@@H]2C1 shows inhibition of growth at 10 µM of 50% or higher.
Output: label 0

----------
Tested on: MDA-MB-435
ASSAY COMMENT: Growth inhibition of human MDA-MB-435 cells by sulforhodamine B assay
Assay type: functional
CONDITION PARAMETERS: read-out: pGI50 (converted)
ASSAY READOUT: GI50 (µM)
Express the result in µM but write the number alone.

Some solved entries appear below for comparison.
C/C=C(/C)C(=O)O[C@@H]1CC(C)(C)C[C@H]2C3=CC[C@@H]4[C@@]5(C)CC[C@H](O)C(C)(C)[C@@H]5CC[C@@]4(C)[C@]3(C)CC[C@@]12C(=O)O : 2.19
CC1(C)C[C@@H](O)[C@]2(C(=O)O)CC[C@]3(C)C(=CC[C@@H]4[C@@]5(C)C/C(=C\C=C\c6ccccc6)C(=O)C(C)(C)[C@@H]5CC[C@]43C)[C@@H]2C1 : 3.31
CC(C)=CC(=O)O[C@@H]1CC(C)(C)C[C@H]2C3=CC[C@@H]4[C@@]5(C)CC[C@H](O)C(C)(C)[C@@H]5CC[C@@]4(C)[C@]3(C)CC[C@@]12C(=O)O : 12
CC(C)=CC(=O)O[C@@H]1CC(C)(C)C[C@H]2C3=CC[C@@H]4[C@@]5(C)CCC(=O)C(C)(C)[C@@H]5CC[C@@]4(C)[C@]3(C)CC[C@@]12C(=O)O : 6.17

We now examine a further molecule.
Task: Please give the measured GI50 for this molecule: C/C=C(/C)C(=O)O[C@@H]1CC(C)(C)C[C@H]2C3=CC[C@@H]4[C@@]5(C)CCC(=O)C(C)(C)[C@@H]5CC[C@@]4(C)[C@]3(C)CC[C@@]12C(=O)O
Output: 5.25

----------
System: Malme-3M
ASSAY COMMENT: Growth inhibition of human MALME-3M cells by sulforhodamine B assay
Type: functional
CONDITION PARAMETERS: read-out: pLC50 (the source's name) (converted)
Overview of reported CC50 across a group of molecules:
Express the result in µM but write the number alone.

C/C=C(/C)C(=O)O[C@@H]1CC(C)(C)C[C@H]2C3=CC[C@@H]4[C@@]5(C)CC[C@H](O)C(C)(C)[C@@H]5CC[C@@]4(C)[C@]3(C)CC[C@@]12C(=O)O : 7.76

We now examine a further molecule.
Task: Please give the measured CC50 for this molecule: CC1(C)C[C@@H](O)[C@]2(C(=O)O)CC[C@]3(C)C(=CC[C@@H]4[C@@]5(C)C/C(=C\C=C\c6ccccc6)C(=O)C(C)(C)[C@@H]5CC[C@]43C)[C@@H]2C1
Output: 58.9

----------
Overview of reported CC50 across a group of compounds:
System: SF-295
ASSAY COMMENT: Growth inhibition of human SF295 cells by sulforhodamine B assay
Type: functional
CONDITION PARAMETERS: read-out: pLC50 (the source's name) (converted)
Express the result in µM but write the number alone.

CC(C)=CC(=O)O[C@@H]1CC(C)(C)C[C@H]2C3=CC[C@@H]4[C@@]5(C)CC[C@H](O)C(C)(C)[C@@H]5CC[C@@]4(C)[C@]3(C)CC[C@@]12C(=O)O [Reduced Lantadene B] : 52.5

Task: Please give the measured CC50 for this compound: C/C=C(/C)C(=O)O[C@@H]1CC(C)(C)C[C@H]2C3=CC[C@@H]4[C@@]5(C)CC[C@H](O)C(C)(C)[C@@H]5CC[C@@]4(C)[C@]3(C)CC[C@@]12C(=O)O [Reduced Lantadene A]
Output: 7.76

Task: Please give the measured CC50 for this compound: CC1(C)C[C@@H](O)[C@]2(C(=O)O)CC[C@]3(C)C(=CC[C@@H]4[C@@]5(C)C/C(=C\C=C\c6ccccc6)C(=O)C(C)(C)[C@@H]5CC[C@]43C)[C@@H]2C1
Output: 50.1

Task: Please give the measured CC50 for this compound: CC(C)=CC(=O)O[C@@H]1CC(C)(C)C[C@H]2C3=CC[C@@H]4[C@@]5(C)CCC(=O)C(C)(C)[C@@H]5CC[C@@]4(C)[C@]3(C)CC[C@@]12C(=O)O
Output: 72.4
